The following compounds are listed with their measured TGI values.
# Tested on: SK-MEL-28 melanoma
# measurementNotes: NCI tumour cell line growth inhibition, 48 h
parameter: TGI

# compound, parameter, valueObserved
measured = [
    ("Cn1ccnc1C[N-]Cc1nccn1C.O=[N+]([O-])[O-].O=[N+]([O-])[O-].[Cu+2]", "TGI", "> 100 µM"),
    ("NC(=O)N/N=C(/c1nc2ccc([N+](=O)[O-])cc2[nH]c1=O)C(O)c1ccco1 (stereo unspecified)", "TGI", "> 100 µM"),
    ("C=CCC(CNC(=O)OCc1ccccc1)OC(=O)OCc1ccccc1 (stereo unspecified)", "TGI", "> 100 µM"),
    ("C[N+](C)(N)c1nc(N)c(C#N)c(C#N)c1C#N", "TGI", "> 10 µM"),
    ("NS(=O)(=O)c1ccc(NC(=O)Nc2ccccc2F)cc1", "TGI", "> 100 µM"),
    ("O=C(c1ccccc1)C1C(C(=O)c2ccccc2)C(c2ccccc2)N(c2ccccc2)C1c1ccccc1 (stereo unspecified)", "TGI", "> 100 µM"),
]

###

The following compounds are listed with their measured TGI values.
# Test system: NCI-H23 lung
# measurementNotes: NCI tumour cell line growth inhibition, 48 h
parameter: TGI

# compound, valueObserved
measured = [
    ("NC(N)=NCC(N)C(=O)O (centres undefined)", "> 100 µM"),
    ("CN1B(c2ccccc2)N(C)C(=O)N(C)C1=O", "> 100 µM"),
    ("CN(C)CCn1nc(N)c2nc3cc(C(F)(F)F)ccc3nc21", "> 100 µM"),
    ("O=P1(c2ccccc2)C2=CCC=CC2C(c2ccccc2)N1Cc1ccccc1 (centres undefined)", "24.8 µM"),
    ("Cc1ncc([N+](=O)[O-])n1CCNC(=O)CCCCCn1ccnc1[N+](=O)[O-]", "> 100 µM"),
    ("C1C[OH+]CC[OH+]CC[OH+]CC[OH+]CC[OH+]CC[OH+]1.[Cl-].[Nb+5]", "> 100 µM"),
    ("COC(=O)[C@H](CCSC)NC(=O)c1ccc(CNC(=O)/C(C)=C/c2ccccc2)cc1", "> 100 µM"),
    ("OC(CN1CCCCC1)c1ccc(/C=C/c2ccc(Cl)cc2)cc1 (centres undefined)", "> 100 µM"),
    ("O=C(O)CC(O)(C(=O)O)C(O)C(=O)O (centres undefined)", "> 1000 µM"),
]

###

# System: LOX IMVI melanoma
# measurementNotes: NCI tumour cell line growth inhibition, 48 h; in the data active = GI50 below about 0.43 µM; inactive = the rest
Classes used: yes (1) (active), no (0) (inactive)

# compound, class
records = [
    ("CC1(C)[C@@H](OC(N)=O)C=C[C@]2(C=O)[C@H]3CC[C@]4(C)[C@@H](c5ccc(=O)oc5)[C@@H](Cl)C[C@]4(O)C3=CC[C@@H]12", "yes (1)"),
    ("COc1cc(-c2nn(-c3ccc(NC(=O)c4cc(Cl)cc(Cl)c4)cc3)cc2-c2ccncc2)ccc1Cl", "no (0)"),
    ("COc1cc([C@@H]2c3cc4c(cc3C(OC3O[C@@H]5COC(C)O[C@H]5[C@H](O)[C@H]3O)C3COC(=O)[C@@H]32)OCO4)cc(OC)c1O (stereo not given in full)", "no (0)"),
    ("COc1ccc(/C=N/N=C(\\[O-])c2ccncc2)cc1F.COc1ccc(/C=N\\N=C(/[O-])c2ccncc2)cc1F.[Cu+2]", "no (0)"),
    ("CCOC(=S)SCN1C(=O)c2ccccc2S1(=O)=O", "no (0)"),
]
